- target_or_test_system: Factor IXa (Homo sapiens, UniProt P00740)
- Sequence (P00740 227-461 limits assumed): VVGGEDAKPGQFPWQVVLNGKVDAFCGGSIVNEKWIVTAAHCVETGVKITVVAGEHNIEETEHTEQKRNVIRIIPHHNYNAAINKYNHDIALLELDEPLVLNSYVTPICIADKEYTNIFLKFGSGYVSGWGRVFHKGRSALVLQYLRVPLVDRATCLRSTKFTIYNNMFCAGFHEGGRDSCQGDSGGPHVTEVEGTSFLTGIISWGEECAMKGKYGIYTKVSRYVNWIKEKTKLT
- Sequence (P00740 47-191 partner limits assumed): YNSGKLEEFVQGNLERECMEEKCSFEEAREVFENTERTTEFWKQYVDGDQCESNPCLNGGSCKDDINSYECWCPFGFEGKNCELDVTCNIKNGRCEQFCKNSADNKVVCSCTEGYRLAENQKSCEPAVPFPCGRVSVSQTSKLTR
- assay_details: Determination of inhibitory activity against Factor IXa (cleavage of fluorescent peptide substrate)
- Assay type: biochemical
- run_parameters: cleavage of fluorescent peptide CH3SO2-D-CHG-Gly-Arg-AFC, release of AFC; read-out: FIXa IC50
Listing: pIC50 of selected compounds
Convention used: pIC50 is expressed as -log10 of the molar concentration.

Previously resolved entries follow.
* [2H]C([2H])([2H])Oc1cc(-n2ccc(N3CCO[C@H]([C@@](C)(O)C(=O)Nc4ccc5c(N)noc5c4)C3=O)n2)cnn1 | 8.43
* C[C@]1([C@@H](O)C(=O)Nc2ccc3c(N)noc3c2)OCCN(c2ccn(-c3ccncc3)n2)C1=O | 5.97
* C[C@](O)(C(=O)Nc1ccc2c(N)noc2c1)[C@H]1OCCN(c2nn(-c3cnnc(C#N)c3)cc2F)C1=O | 8.38

Pending compound:
Challenge: Consider the compound "COc1cc(-n2ccc(N3CCO[C@H]([C@@](C)(O)C(=O)Nc4cc(F)c5c(N)noc5c4)C3=O)n2)cnn1" and give its measured pIC50.
Response given: 7.85

====

Listing: pIC50 of selected molecules
- target_or_test_system: Factor IXa (Homo sapiens)
Convention used: pIC50 is expressed as -log10 of the molar concentration.

Previously resolved entries follow.
* C[C@](O)(C(=O)Nc1cc(Cl)c2c(N)noc2c1)[C@H]1OCCN(c2nn(-c3ccnnc3)cc2F)C1=O | 7.66
* Cc1nccc(-n2ccc(N3CCO[C@H]([C@@](C)(O)C(=O)Nc4ccc5c(N)noc5c4)C3=O)n2)n1 | 6.77
* C[C@](O)(C(=O)Nc1cnc2c(N)noc2c1)[C@H]1OCCN(c2ccn(-c3ccncc3)n2)C1=O | 6.34
* COC(=O)c1cc(-n2ccc(N3CCO[C@](C)([C@@H](O)C(=O)Nc4ccc5c(N)noc5c4)C3=O)n2)ccn1 | 6.16
* COc1ncc(-n2ccc(N3CCO[C@](C)([C@@H](O)C(=O)Nc4ccc5c(N)noc5c4)C3=O)n2)cn1 | 6.20
* C[C@](O)(C(=O)Nc1ccc2c(N)noc2c1)[C@H]1OCCN(c2ccn(-c3cnnc(OC(CO)CCl)c3)n2)C1=O (some centres unmarked) | 6.01

Challenge: API: value(readout= pIC50, system= Factor IXa (Homo sapiens), query= "C[C@]1([C@@H](O)C(=O)Nc2ccc3c(N)noc3c2)OCCN(c2cccc(-c3ccc(C(F)(F)F)cc3C(=O)O)n2)C1=O" )
Response given: 6.01

Challenge: API: value(readout= pIC50, system= Factor IXa (Homo sapiens), query= "C[C@]1([C@@H](O)C(=O)Nc2ccc3c(N)noc3c2)OCCN(c2ccn(-c3ccc(F)cc3)n2)C1=O" )
Response given: 6.77

Challenge: API: value(readout= pIC50, system= Factor IXa (Homo sapiens), query= "C[C@](O)(C(=O)Nc1ccc2c(N)noc2c1)[C@H]1OCCN(c2ccn(-c3cnnc(OC4CCC4)c3)n2)C1=O" )
Response given: 6.27

Challenge: API: value(readout= pIC50, system= Factor IXa (Homo sapiens), query= "COc1cc(-n2ccc(N3CCO[C@](C)([C@@H](O)C(=O)Nc4ccc5c(N)noc5c4)C3=O)n2)cnn1" )
Response given: 8.43

Challenge: API: value(readout= pIC50, system= Factor IXa (Homo sapiens), query= "C[C@](O)(C(=O)Nc1cc(F)c2c(N)noc2c1)[C@H]1OCCN(c2nn(-c3ccncc3)cc2F)C1=O" )
Response given: 7.26

Challenge: API: value(readout= pIC50, system= Factor IXa (Homo sapiens), query= "C[C@](O)(C(=O)Nc1cc(Cl)c2c(N)noc2c1)[C@H]1OCCN(c2ccn(-c3ccnnc3)n2)C1=O" )
Response given: 6.89

Challenge: API: value(readout= pIC50, system= Factor IXa (Homo sapiens), query= "C[C@](O)(C(=O)Nc1ccc2c(N)noc2c1)[C@H]1OCCN(c2ccn(-c3cnnc(C(N)=O)c3)n2)C1=O" )
Response given: 7.69

Challenge: API: value(readout= pIC50, system= Factor IXa (Homo sapiens), query= "C[C@](O)(C(=O)Nc1cc(F)c2c(N)noc2c1)[C@H]1OCCN(c2ccn(-c3ccnc(C(F)(F)F)c3)n2)C1=O" )
Response given: 7.02

====

Listing: IC50 of selected compounds
- target_or_test_system: Factor IXa (Homo sapiens)
- assay_details: Determination of inhibitory activity against Factor IXa (cleavage of fluorescent peptide substrate)
- Format: biochemical
- run_parameters: cleavage of fluorescent peptide CH3SO2-D-CHG-Gly-Arg-AFC, release of AFC; read-out: FIXa IC50
Write the value in nM as a bare number.

Previously resolved entries follow.
• Cc1[nH]c2ccc(NC(=O)[C@](C)(O)[C@H]3OCCN(c4ccn(-c5ccnnc5)n4)C3=O)cc2c1Cl = 28.1
• C[C@]1([C@@H](O)C(=O)Nc2ccc3c(N)noc3c2)OCCN(c2nn(-c3ccc(=O)n(C(F)F)c3)cc2F)C1=O = 25.6
• C[C@]1([C@@H](O)C(=O)Nc2ccc(CN)c(F)c2)OCCN(c2ccn(-c3ccncc3)n2)C1=O = 12.7

Challenge: Consider the compound "C[C@](O)(C(=O)Nc1ccc(CN)cc1)[C@H]1OCCN(c2ccn(-c3ccncc3)n2)C1=O" and give its measured IC50.
Response given: 66.2

====

- target_or_test_system: Factor IXa (Homo sapiens)
Listing: pIC50 of selected compounds
Convention used: pIC50 is expressed as -log10 of the molar concentration.

Previously resolved entries follow.
* C[C@](O)(C(=O)Nc1ccc2c(N)noc2c1)[C@H]1OCCN(c2ccn(-c3ccc(C(=O)O)cc3)n2)C1=O | 6.54
* C[C@](O)(C(=O)Nc1cc(F)c2c(N)noc2c1)[C@H]1OCCN(c2ccn(-c3cnnc(N4CCC4)c3)n2)C1=O | 7.27
* C[C@]1([C@@H](O)C(=O)Nc2ccc3c(N)noc3c2)OCCN(c2nc(-c3ccncc3)co2)C1=O | 7.01
* C[C@](O)(C(=O)Nc1ccc2c(N)noc2c1)[C@H]1OCCN(c2nn(-c3ccnc(C#N)c3)cc2F)C1=O | 7.51
* CC[C@]1([C@@H](O)C(=O)Nc2ccc3c(N)noc3c2)OCCN(c2cccc(C(F)(F)F)n2)C1=O | 6.39

Challenge: Consider the compound "COc1nccc(-n2ccc(N3CCO[C@H]([C@@](C)(O)C(=O)Nc4ccc5c(N)noc5c4)C3=O)n2)n1" and give its measured pIC50.
Response given: 7.61

Challenge: Consider the compound "C[C@](O)(C(=O)Nc1ccc2c(N)noc2c1)[C@H]1OCCN(c2ccc3cc(C(F)(F)F)ccc3n2)C1=O" and give its measured pIC50.
Response given: 6.24

====

- target_or_test_system: Factor IXa (Homo sapiens)
Listing: log10 IC50 of selected compounds
Values below are the log10 of the recorded IC50, with nM as the unit.

Previously resolved entries follow.
• COc1cc(-n2ccc(N3CCO[C@H]([C@@](C)(O)C(=O)Nc4ccc5c(N)noc5c4)C3=O)n2)c(F)cn1 = 2.17
• CCOc1cc(-n2ccc(N3CCO[C@H]([C@@](C)(O)C(=O)Nc4ccc5c(N)noc5c4)C3=O)n2)cnn1 = 1.37
• COc1cc(-n2ccc(N3CCO[C@H]([C@@](C)(O)C(=O)Nc4ccc5c(N)noc5c4)C3=O)n2)ncn1 = 1.93
• C[C@](O)(C(=O)Nc1cc(F)c2c(N)noc2c1)[C@H]1OCCN(c2ccn(-c3ccnnc3)n2)C1=O = 1.01
• COc1cc(-n2ccc(N3C[C@@H](C)O[C@H]([C@@H](O)C(=O)Nc4ccc5c(N)noc5c4)C3=O)n2)ccn1 = 0.77

Challenge: API: value(readout= log10 IC50, system= Factor IXa (Homo sapiens), query= "C[C@@H]1CN(c2ccn(-c3ccnc(C#N)c3)n2)C(=O)[C@@H]([C@@H](O)C(=O)Nc2ccc3c(N)noc3c2)O1" )
Response given: 0.30

Challenge: API: value(readout= log10 IC50, system= Factor IXa (Homo sapiens), query= "Cc1cc(N2CCO[C@](C)([C@@H](O)C(=O)Nc3ccc4c(N)noc4c3)C2=O)nn1-c1ccc(=O)n(C(F)F)c1" )
Response given: 1.42

====

Here's what we have: IC50 numbers for Factor IXa (Homo sapiens, UniProt P00740).
Write the value in nM as a bare number.

Previously resolved entries follow.
- C[C@](O)(C(=O)Nc1ccc2c(N)noc2c1)[C@H]1OCCN(c2ccn(-c3ccnc(C#N)c3)n2)C1=O: 16
- C[C@]1([C@@H](O)C(=O)Nc2ccc3c(N)noc3c2)OCCN(c2ccc3cc(C(F)(F)F)ncc3n2)C1=O: 101
- C[C@](O)(C(=O)Nc1ccc2c(N)noc2c1)[C@H]1OCCN(c2ccn(-c3cnnc(C(F)(F)F)c3)n2)C1=O: 1.41
- C[C@](O)(C(=O)Nc1cc(F)c2c(N)noc2c1)[C@H]1OCCN(c2ccn(-c3ccncc3)n2)C1=O: 49.8
- C[C@](O)(C(=O)Nc1ccc2c(N)noc2c1)[C@H]1OCCN(c2ccc3ccncc3n2)C1=O: 384
- C[C@]1([C@@H](O)C(=O)Nc2ccc3c(N)noc3c2)OCCN(c2ccn(-c3ccnc(C#N)c3)n2)C1=O: 66.1

Pending molecule:
Challenge: API: value(readout= IC50, system= Factor IXa (Homo sapiens, UniProt P00740), query= "COc1cc(-n2ccc(N3CC(C)(C)O[C@H]([C@@H](O)C(=O)Nc4ccc5c(N)noc5c4)C3=O)n2)ccn1" )
Response given: 20.9
